Biological target: human wild type STING (WT STING) (Homo sapiens, UniProt Q86WV6, H232R)
Sequence (Q86WV6 whole entry H232R): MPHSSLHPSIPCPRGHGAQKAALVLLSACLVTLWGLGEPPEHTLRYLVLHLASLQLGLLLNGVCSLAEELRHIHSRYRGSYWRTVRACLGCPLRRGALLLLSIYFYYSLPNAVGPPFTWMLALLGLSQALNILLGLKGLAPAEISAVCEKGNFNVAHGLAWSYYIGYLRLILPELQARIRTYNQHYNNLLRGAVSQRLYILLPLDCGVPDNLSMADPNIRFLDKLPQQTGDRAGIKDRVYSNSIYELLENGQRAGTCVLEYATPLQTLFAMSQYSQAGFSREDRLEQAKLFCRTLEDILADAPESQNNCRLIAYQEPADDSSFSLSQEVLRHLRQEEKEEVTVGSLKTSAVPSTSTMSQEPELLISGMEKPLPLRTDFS
Test: Digitonin assay using 293T wtSTING-FL reporter cells (ISRE firefly luciferase reporter)
Settings: 293T wtSTING-FL cells; 30 min in Digitonin buffer, then 5 hours; luciferase read-out; 8-point dose-response curve; read-out: Digitonin assay EC50 (μmol · l^−1) WT STING
From the text: Two complementary oligonucleotides of the sequence […] […] The oligonucleotides were mixed in equal molar amounts, hybridized, and cleaved by restriction endonucleases HindIII (cat. #. R0104S, NEB, Ipswich, USA) and BglII (cat. #R0144S, NEB, Ipswich, USA). Ultimately, they were ligated into plasmid pGL4.27 (cat. #E6651, Promega, Madison, USA) linearized with the same enzymes. […]
readout type: EC50 (µM)
Numbers only, in µM.

Past entries and their recorded results:
[[record]]
molecule = "Nc1nc2c(ncn2[C@@H]2O[C@@H]3COP(=O)(O)O[C@@H]4[C@H](O)[C@@H](COP(=O)(O)CO[C@H]3[C@H]2O)O[C@H]4n2cnc3c(N)ncnc32)c(=O)[nH]1"
measured_number = 1.2

[[record]]
molecule = "Nc1nc2c(ncn2[C@@H]2O[C@@H]3COP(=O)(O)CO[C@H]4[C@@H](F)[C@H](n5cnc6c(N)ncnc65)O[C@@H]4COP(=O)(O)O[C@@H]2[C@@H]3F)c(=O)[nH]1"
measured_number = 0.02

[[record]]
molecule = "Nc1nc(N)c2ncn([C@@H]3O[C@@H]4COP(=O)(O)O[C@@H]5[C@H](O)[C@@H](COP(=O)(O)CO[C@H]4[C@H]3F)O[C@H]5n3cnc4c(N)ncnc43)c2n1"
measured_number = 0.58

[[record]]
molecule = "Nc1nc2c(ncn2[C@@H]2O[C@@H]3COP(=O)(O)CO[C@H]4[C@@H](O)[C@H](n5cnc6c(N)ncnc65)O[C@@H]4COP(=O)(O)O[C@@H]2[C@@H]3F)c(=O)[nH]1"
measured_number = 0.002

[[record]]
molecule = "Nc1ncnc2c1ncn2[C@@H]1O[C@@H]2COP(=O)(O)O[C@H]3[C@@H](O)[C@H](n4cnc5c(N)ncnc54)O[C@@H]3COP(=O)(O)O[C@H]2[C@H]1O [3′3′-c-di-AMP, reference compound]"
measured_number = 0.3

[[record]]
molecule = "Nc1nc2c(ncn2[C@@H]2O[C@@H]3COP(=O)(O)CO[C@@H]4[C@H](O)[C@@H](COP(=O)(O)O[C@H]3[C@H]2F)O[C@H]4n2cnc3c(N)ncnc32)c(=O)[nH]1"
measured_number = 6.1

[[record]]
molecule = "Nc1nc2c(ncn2[C@@H]2O[C@@H]3COP(=O)(O)CO[C@H]4C[C@H](n5cnc6c(N)ncnc65)O[C@@H]4COP(=O)(O)O[C@@H]2[C@@H]3F)c(=O)[nH]1"
measured_number = 0.005

[[record]]
molecule = "Nc1nc2c(ncn2[C@@H]2O[C@@H]3COP(=O)(O)CO[C@H]4[C@@H](F)[C@H](n5cnc6c(N)ncnc65)O[C@@H]4COP(=O)(O)O[C@@H]2[C@@H]3O)c(=O)[nH]1"
measured_number = 0.02


Each molecule below has a reported value. Please supply its EC50.
1. Nc1nc2c(ncn2[C@@H]2O[C@@H]3COP(=O)(O)O[C@@H]4[C@H](O)[C@@H](COP(=O)(O)O[C@@H]2[C@@H]3O)O[C@H]4n2cnc3c(N)ncnc32)c(=O)[nH]1 [2′2′-cGAMP, reference compound]
2. Nc1nc2c(ncn2[C@@H]2O[C@@H]3COP(=O)(O)CO[C@H]4[C@@H](F)[C@H](n5cnc6c(N)ncnc65)O[C@@H]4COP(=O)(O)O[C@@H]2C3)c(=O)[nH]1
3. Nc1nc2c(ncn2[C@@H]2O[C@@H]3COP(=O)(O)CO[C@H]4[C@@H](O)[C@H](n5cnc6c(N)ncnc65)O[C@@H]4COP(=O)(O)O[C@@H]2[C@@H]3O)c(=O)[nH]1

Result:
1: 0.03; 2: 0.02; 3: 0.014

----------
molecular target: WT STING (truncated human WT STING protein) (Homo sapiens, UniProt Q86WV6, H232R); construct: truncated human WT STING or AQ STING (amino acid residues 140-343); 8xHis (N, cleaved yes); SUMO (N, cleaved yes); made in house; host or cells: E. coli Rosetta-gami B (DE3); experiment: Differential Scanning Fluorimetry with WT STING; format: binding; conditions: thermal shift vs apoprotein; 150 μM CDN; 0.1 mg/ml STING protein; SYPRO Orange; read-out: DSF ΔTm (° C.) WT STING
Sequence (Q86WV6 140-343 H232R): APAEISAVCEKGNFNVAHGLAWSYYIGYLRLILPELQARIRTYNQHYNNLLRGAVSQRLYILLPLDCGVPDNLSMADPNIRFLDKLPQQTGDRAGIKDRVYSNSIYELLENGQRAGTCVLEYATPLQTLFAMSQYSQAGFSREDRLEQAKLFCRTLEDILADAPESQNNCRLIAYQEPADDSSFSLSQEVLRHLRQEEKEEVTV
readout type: ΔTm at 150 µM (°C)
One number for each entry, in °C.

Past entries and their recorded results:
[[record]]
entry_smiles = "Nc1nc2c(ncn2[C@@H]2O[C@@H]3COP(=O)(O)CO[C@H]4C[C@H](n5cnc6c(N)ncnc65)O[C@@H]4COP(=O)(O)O[C@@H]2[C@@H]3F)c(=O)[nH]1"
unit_descriptor = "°C"
measured_number = 17.2

[[record]]
entry_smiles = "Nc1nc2c(ncn2[C@@H]2O[C@@H]3COP(=O)(O)CO[C@H]4C[C@H](n5cnc6c(N)ncnc65)O[C@@H]4COP(=O)(O)O[C@@H]2[C@@H]3O)c(=O)[nH]1"
unit_descriptor = "°C"
measured_number = 14.4

[[record]]
entry_smiles = "Nc1nc2c(ncn2[C@@H]2O[C@@H]3COP(=O)(O)CO[C@H]4[C@@H](O)[C@H](n5cnc6c(N)ncnc65)O[C@@H]4COP(=O)(O)O[C@@H]2C3)c(=O)[nH]1"
unit_descriptor = "°C"
measured_number = 14.2


Each molecule below has a reported value. Please supply its ΔTm at 150 µM.
1. Nc1ncnc2c1ncn2[C@@H]1O[C@@H]2COP(=O)(O)CO[C@@H]3[C@@H](O)[C@@H](COP(=O)(O)CO[C@@H]2[C@H]1O)O[C@H]3n1cnc2c(N)ncnc21
2. Nc1nc2c(ncn2[C@@H]2O[C@@H]3COP(=O)(O)CO[C@H]4[C@@H](O)[C@H](n5cnc6c(N)ncnc65)O[C@@H]4COP(=O)(O)O[C@@H]2[C@@H]3O)c(=O)[nH]1

Result:
0
16.7

----------
target: AQ STING (truncated human STING G230A-R293Q allelic form) (Homo sapiens, UniProt Q86WV6, G230A/H232R/R293Q); construct: truncated human WT STING or AQ STING (amino acid residues 140-343); 8xHis (N, cleaved yes); SUMO (N, cleaved yes); made in house; host or cells: E. coli Rosetta-gami B (DE3); assay: Differential Scanning Fluorimetry with AQ STING; type: binding; details: thermal shift vs apoprotein; 150 μM CDN; 0.1 mg/ml STING protein; SYPRO Orange; read-out: DSF ΔTm (° C.) AQ STING
Sequence (Q86WV6 140-343 G230A/H232R/R293Q): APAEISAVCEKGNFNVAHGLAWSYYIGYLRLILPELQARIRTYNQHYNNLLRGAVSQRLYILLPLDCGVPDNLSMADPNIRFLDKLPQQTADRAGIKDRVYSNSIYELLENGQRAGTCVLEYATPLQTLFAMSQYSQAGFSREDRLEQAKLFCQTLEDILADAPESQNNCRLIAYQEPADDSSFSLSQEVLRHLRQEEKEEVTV
Values of ΔTm at 150 µM strictly less than 20 °C map to 1, and values of at least 20 °C map to -1.

Solved entries:
[[record]]
entry_smiles = "Nc1nc2c(ncn2[C@@H]2O[C@@H]3COP(=O)(O)CO[C@H]4[C@@H](F)[C@H](n5cnc6c(N)ncnc65)O[C@@H]4COP(=O)(O)O[C@@H]2C3)c(=O)[nH]1"
class = -1

[[record]]
entry_smiles = "Nc1ncnc2c1ncn2[C@@H]1O[C@@H]2COP(=O)(O)O[C@@H]3[C@H](F)[C@@H](COP(=O)(O)CO[C@H]2[C@H]1F)O[C@H]3n1cnc2c(=O)[nH]cnc21"
class = -1

[[record]]
entry_smiles = "Nc1ncnc2c1ncn2[C@@H]1O[C@@H]2COP(=O)(O)CO[C@@H]3[C@H](O)[C@@H](COP(=O)(O)O[C@H]2[C@H]1O)O[C@H]3n1cnc2c(N)ncnc21"
class = 1


Q: Given "Nc1nc2c(ncn2[C@@H]2O[C@@H]3COP(=O)(O)CO[C@H]4[C@@H](O)[C@H](n5cnc6c(N)ncnc65)O[C@@H]4COP(=O)(O)O[C@@H]2C3)c(=O)[nH]1" , is recorded ΔTm at 150 µM strictly lower than 20 °C?
Result: -1

Q: Please answer likewise for "Nc1nc(N)c2ncn([C@@H]3O[C@@H]4COP(=O)(O)CO[C@H]5[C@@H](O)[C@H](n6cnc7c(N)ncnc76)O[C@@H]5COP(=O)(O)O[C@@H]3[C@@H]4F)c2n1"
Result: 1

Q: Please answer likewise for "Nc1ncnc2c1ncn2[C@@H]1O[C@@H]2COP(=O)(O)O[C@@H]3[C@H](O)[C@@H](COP(=O)(O)CO[C@H]2[C@@H]1O)O[C@H]3n1cnc2c(N)ncnc21"
Result: 1

Q: Please answer likewise for "Nc1ncnc2c1ncn2[C@@H]1O[C@@H]2COP(=O)(O)O[C@@H]3[C@H](F)[C@@H](COP(=O)(O)CO[C@H]2[C@H]1F)O[C@H]3n1cnc2c(N)ncnc21"
Result: 1

Q: Please answer likewise for "Nc1nc2c(ncn2[C@@H]2O[C@@H]3COP(=O)(O)CO[C@H]4C[C@H](n5cnc6c(N)ncnc65)O[C@@H]4COP(=O)(O)O[C@@H]2[C@@H]3O)c(=O)[nH]1"
Result: 1

Q: Please answer likewise for "Nc1nc2c(ncn2[C@@H]2O[C@@H]3COP(=O)(O)O[C@@H]4[C@H](O)[C@@H](COP(=O)(O)CO[C@H]3[C@H]2O)O[C@H]4n2cnc3c(N)ncnc32)c(=O)[nH]1"
Result: 1

Q: Please answer likewise for "Nc1ncnc2c1ncn2[C@@H]1O[C@@H]2COP(=O)(O)O[C@@H]3[C@H](O)[C@@H](COP(=O)(O)CO[C@H]2[C@H]1O)O[C@H]3n1cnc2c(N)ncnc21"
Result: 1

Source listed as patent US11149052B2.
